test: clinical; type: in vivo, human; details: male, human, in vivo

smiles_code | AUC, ng·h/mL
CCc1c2c(nc3ccc(OC(=O)N4CCC(N5CCCCC5)CC4)cc13)-c1cc3c(c(=O)n1C2)COC(=O)[C@]3(O)CC | 16100
